System: CCRIS mutagenicity, Ames/micronucleus/aberration tests
Procedure Details: CCRIS mutagenicity studies
Test Context: End Point: IN VITRO CHROMOSOMAL ABERRATIONS; Test System: CHO CELLS; Metabolic Activation: RAT, LIVER, S-9, AROCLOR 1254
Excerpt: The CCRIS database contains chemical records with carcinogenicity, mutagenicity, tumor promotion, and tumor inhibition test results. It was developed by the National Cancer Institute (NCI). Data are derived from studies cited in primary journals, current awareness tools, NCI reports, and other sources. Test results have been reviewed by experts in carcinogenesis and mutagenesis. CCRIS provides historical information from the years 1985 - 2011. It is no longer updated. […]
Calls of active or inactive are those of the source. How the calls were made is not given here.
Outcomes: true (1) for active, false (0) for inactive

Compound Smiles: Brc1c(Br)c(Br)c(Oc2c(Br)c(Br)c(Br)c(Br)c2Br)c(Br)c1Br
Assigned Class: false (0)
--
Compound Smiles: C[C@](N)(Cc1ccc(O)c(O)c1)C(=O)O
Assigned Class: false (0)
--
Compound Smiles: CC(=O)Nc1ccc(N=Nc2cc(C)ccc2O)cc1
Assigned Class: false (0)
--
Compound Smiles: Cc1c(N=C=O)cccc1N=C=O
Assigned Class: false (0)
--
Compound Smiles: COP(=O)(OC)OC=C(Cl)Cl
Assigned Class: true (1)
--
Compound Smiles: O=C1CCCO1
Assigned Class: true (1)
--
Compound Smiles: ClCCOCCCl
Assigned Class: false (0)
--
Compound Smiles: O=C1C=CC[C@H](/C=C/c2ccccc2)O1
Assigned Class: true (1)

====

System: CCRIS mutagenicity, Ames/micronucleus/aberration tests
Procedure Details: CCRIS mutagenicity studies
Test Context: Test System: AMES SALMONELLA TYPHIMURIUM; Strain/Indicator: TA104; Metabolic Activation: NONE
The source made the active and inactive calls. The rule behind the calls is not given here.
Outcomes: yes = active, no = inactive

Compound: O=[N+]([O-])c1ccc2c(ccc3cc4c(ccc5ccccc54)cc32)c1
Assigned Class: no

Compound: O=C(O)COc1cc(Cl)c(Cl)cc1Cl
Assigned Class: no

Compound: O=[N+]([O-])c1cc2c3c(c1)CCc1c4c(cc(c1-3)CC2)CCCC4
Assigned Class: yes

Compound: CC(C)(Oc1ccc(C2CC2(Cl)Cl)cc1)C(=O)O (centres undefined)
Assigned Class: no

====

Tested on: CCRIS mutagenicity, Ames/micronucleus/aberration tests
Procedure Details: CCRIS mutagenicity studies
Test Context: Test System: AMES SALMONELLA TYPHIMURIUM; Strain/Indicator: TA100; Metabolic Activation: NONE; Method: STANDARD PLATE
Activity calls are given as the source filed them. How the calls were made is not given here.
Outcomes: active, inactive

Compound: ClCc1ccccn1
Assigned Class: active

Compound: COC(=O)[C@H]1[C@H]2C[C@@H]3c4[nH]c5cc(OC)ccc5c4CCN3C[C@H]2C[C@@H](OC(=O)c2cc(OC)c(OC)c(OC)c2)[C@@H]1OC
Assigned Class: inactive

Compound: O=C(NO)c1ccc(O)c(O)c1
Assigned Class: inactive

Compound: O=[N+]([O-])c1cccc(OS(=O)(=O)c2cccc3cccnc23)c1
Assigned Class: inactive

Compound: Cc1ncc([N+](=O)[O-])n1C
Assigned Class: active

Compound: C=Cc1ccc(N)cc1
Assigned Class: inactive

Compound: CC(=O)OC1Cc2c(C)ccc3cc4c(ccc5ccccc54)c1c23 (stereo not drawn)
Assigned Class: active

Compound: COc1ccc(CO)cc1
Assigned Class: inactive

Compound: Nc1ccn([C@H]2CC[C@@H](CO)O2)c(=O)n1
Assigned Class: inactive

Compound: NC(=O)CCC(=O)Nc1ccc(Cl)c(Cl)c1Cl
Assigned Class: inactive

Compound: CC(Br)c1ccccc1 (stereo not drawn)
Assigned Class: inactive

Compound: c1ccc([C@H]2N[C@H]2c2ccccc2)cc1
Assigned Class: active

Compound: c1ccc2c(c1)CCCC2
Assigned Class: inactive

====

System: CCRIS mutagenicity, Ames/micronucleus/aberration tests
Procedure Details: CCRIS mutagenicity studies
Test Context: Test System: AMES SALMONELLA TYPHIMURIUM; Strain/Indicator: TA100; Metabolic Activation: RAT, LIVER, S-9, AROCLOR 1254 (10%); Method: PREINCUBATION
From the text: The CCRIS database contains chemical records with carcinogenicity, mutagenicity, tumor promotion, and tumor inhibition test results. It was developed by the National Cancer Institute (NCI). Data are derived from studies cited in primary journals, current awareness tools, NCI reports, and other sources. Test results have been reviewed by experts in carcinogenesis and mutagenesis. CCRIS provides historical information from the years 1985 - 2011. It is no longer updated. […]
Activity calls are given as the source filed them. No rule for the calls is given here.

Compound: CCCCCCCCCCCOC(=O)c1ccccc1C(=O)OCCCCCCCCCCC
mutagenic call: inactive; negative
//
Compound: CN(C)CCC(c1ccccc1)c1ccccn1 (stereo not drawn)
mutagenic call: inactive; negative
//
Compound: O=[N+]([O-])c1ccccc1CCl
mutagenic call: active; positive
//
Compound: CC(C)(C)c1cc(O)ccc1O
mutagenic call: inactive; negative
//
Compound: CNc1ccc(O)cc1
mutagenic call: inactive; negative
//
Compound: BrCC1CO1 (stereo not drawn)
mutagenic call: active; positive
//
Compound: CCCCCCCCCCCC[S][Sn]([CH2]CCC)([CH2]CCC)[S]CCCCCCCCCCCC
mutagenic call: inactive; negative
//
Compound: CCCCCNCCCCC
mutagenic call: inactive; negative

====

System: CCRIS mutagenicity, Ames/micronucleus/aberration tests
Procedure Details: CCRIS mutagenicity studies
Test Context: Test System: AMES SALMONELLA TYPHIMURIUM; Strain/Indicator: TA100; Metabolic Activation: S-9; Method: PREINCUBATION
Active and inactive are the calls of the source. How the calls were made is not given here.
Outcomes: 1.0 = active, 0.0 = inactive

Compound: CCOCn1cc(F)c(=O)n(C(=O)c2cccc(C(=O)Oc3nc(OC(=O)c4ccccc4)ccc3C#N)c2)c1=O
Assigned Class: 0.0

Compound: O=c1[nH]cc(F)c(=O)[nH]1
Assigned Class: 0.0

Compound: CN(Cc1cnc2nc(N)nc(N)c2n1)c1ccc(C(=O)N[C@@H](CCC(=O)O)C(=O)O)cc1
Assigned Class: 0.0

Compound: ClCC1CO1 (stereo not drawn)
Assigned Class: 1.0

Compound: CCc1ccccc1N
Assigned Class: 0.0

Compound: N#Cc1cccc2cccnc12
Assigned Class: 1.0

Compound: COc1cc(S(=O)(=O)O)c(C)cc1N=Nc1c(O)ccc2cc(S(=O)(=O)O)ccc12
Assigned Class: 0.0

Compound: O=S(=O)(O)c1cc(S(=O)(=O)O)c2c(N=Nc3ccc(S(=O)(=O)O)c4ccccc34)c(O)ccc2c1
Assigned Class: 0.0

Compound: Cc1cnc2cc(CO)c3c(nc(N)n3C)c2n1
Assigned Class: 1.0

Compound: C[C@]1(Cn2ccnn2)[C@H](C(=O)O)N2C(=O)C[C@H]2S1(=O)=O
Assigned Class: 0.0

Compound: CC1=C(O)C(=O)C(O)CO1 (stereo not drawn)
Assigned Class: 1.0

Compound: CCN(CC)CCCN(c1ccccc1)C1Cc2ccccc2C1
Assigned Class: 0.0

Compound: COC(=O)C1=C(C)NC(C)=C(C(=O)OCC(C)=O)C1c1ccccc1[N+](=O)[O-] (stereo not drawn)
Assigned Class: 0.0

====

System: CCRIS mutagenicity, Ames/micronucleus/aberration tests
Procedure Details: CCRIS mutagenicity studies
Test Context: Test System: AMES SALMONELLA TYPHIMURIUM; Strain/Indicator: TA100; Metabolic Activation: S-9; Method: STANDARD PLATE
From the text: The CCRIS database contains chemical records with carcinogenicity, mutagenicity, tumor promotion, and tumor inhibition test results. It was developed by the National Cancer Institute (NCI). Data are derived from studies cited in primary journals, current awareness tools, NCI reports, and other sources. Test results have been reviewed by experts in carcinogenesis and mutagenesis. CCRIS provides historical information from the years 1985 - 2011. It is no longer updated. […]
Active and inactive are the calls of the source. No rule for the calls is given here.
Outcomes: True = active, False = inactive

Compound: O=C(O)c1cn(-c2ccc(F)cc2)c2cc(N3CCNCC3)c(F)cc2c1=O
Assigned Class: False
//
Compound: CCC(C)Nc1snc2ccccc12 (configuration not stated)
Assigned Class: False
//
Compound: O=Nc1ccc2c(c1)Cc1ccccc1-2
Assigned Class: True
//
Compound: CN(Cc1cnc2nc(N)nc(N)c2n1)c1ccc(C(=O)N[C@@H](CCC(=O)O)C(=O)O)cc1
Assigned Class: False
//
Compound: Nc1ccc2c(=O)[nH]sc2c1
Assigned Class: False
//
Compound: COP(=O)(OC)OC=C(Cl)Cl
Assigned Class: True
//
Compound: Nc1ccc(/C=C/c2cccc(Cl)c2)cc1
Assigned Class: True
//
Compound: O=C(c1ccccc1)C(O)c1ccccc1 (configuration not stated)
Assigned Class: False
//
Compound: COP(=S)(OC)Oc1ccc(Sc2ccc(OP(=S)(OC)OC)cc2)cc1
Assigned Class: False
//
Compound: CS(=O)(=O)OCCCCOS(C)(=O)=O
Assigned Class: True
//
Compound: C=CCc1ccc2c(c1)OCO2
Assigned Class: False
//
Compound: O=[N+]([O-])c1ccc(/C=C/c2ccc([N+](=O)[O-])cc2)cc1
Assigned Class: True
